target: RAC-beta serine/threonine-protein kinase (Homo sapiens, UniProt P31751); test: Inhibition of Akt2 phosphorylation in human by C33a cells by IPKA assay; format: cell-based
Sequence (P31751 whole entry): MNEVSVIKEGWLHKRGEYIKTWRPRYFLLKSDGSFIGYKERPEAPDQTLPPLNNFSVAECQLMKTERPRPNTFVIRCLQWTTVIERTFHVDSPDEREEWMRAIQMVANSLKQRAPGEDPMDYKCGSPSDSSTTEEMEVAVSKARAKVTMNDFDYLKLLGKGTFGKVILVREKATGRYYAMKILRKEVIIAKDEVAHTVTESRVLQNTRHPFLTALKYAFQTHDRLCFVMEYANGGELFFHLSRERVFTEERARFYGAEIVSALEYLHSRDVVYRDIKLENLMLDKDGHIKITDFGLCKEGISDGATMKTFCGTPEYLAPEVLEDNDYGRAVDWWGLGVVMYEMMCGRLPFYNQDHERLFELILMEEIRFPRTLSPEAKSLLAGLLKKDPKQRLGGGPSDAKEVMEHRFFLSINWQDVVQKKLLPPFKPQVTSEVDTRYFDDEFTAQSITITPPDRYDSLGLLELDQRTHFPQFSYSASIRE
observed-property: IC50 (nM)

>>> print(df.to_string())
                         compound_structure  measurement_units  measurement
0  FC1(F)CCN(c2ncc3cc(-c4ccccc4)c(-c4ccc(CN5CCC(c6nnc(-c7ccccn7)[nH]6)CC5)cc4)nc3n2)C1                 nM          462
1  C[C@H]1CN(c2ncc3cc(-c4ccccc4)c(-c4ccc(CN5CCC(c6nnc(-c7ccccn7)[nH]6)CC5)cc4)nc3n2)CCN1                 nM          125
2  CN1CCN(c2ncc3cc(-c4ccccc4)c(-c4ccc(CN5CCC(c6nnc(-c7ccccn7)[nH]6)CC5)cc4)nc3n2)CC1                 nM           52
3  C[C@@H]1CN(c2ncc3cc(-c4ccccc4)c(-c4ccc(CN5CCC(c6nnc(-c7ccccn7)[nH]6)CC5)cc4)nc3n2)C[C@H](C)N1                 nM          101
4  C[C@@H]1CN(c2ncc3cc(-c4ccccc4)c(-c4ccc(CN5CCC(c6nnc(-c7ccccn7)[nH]6)CC5)cc4)nc3n2)C[C@H](C)O1                 nM          184
5  c1ccc(-c2cc3cnc(N4CCOCC4)nc3nc2-c2ccc(CN3CCC(c4nnc(-c5ccccn5)[nH]4)CC3)cc2)cc1                 nM          243
6  OCCN1CCN(c2ncc3cc(-c4ccccc4)c(-c4ccc(CN5CCC(c6nnc(-c7ccccn7)[nH]6)CC5)cc4)nc3n2)CC1                 nM           41
